- experimental_protocol: Metabolic stability in monkey plasma assessed as half life at 100 uM measured upto 120 mins by LC-MS/MS analysis
- Assay type: ADME, cell-free, Macaca mulatta
- condition_label: rhesus monkey
experimental_endpoint: half-life at 100 µM (h)
Entry rule: numbers only, all in h.

(Q) What value of half-life at 100 µM has been reported for the following compound? `Cc1cc(Nc2nc(SCc3ccc(C(=O)Nc4ccc(F)cc4N)cc3)nn3cccc23)n[nH]1`
(A) 5.5

* * *

- experimental_protocol: Cmax in Sprague-Dawley rat at 10 mg/kg, po measured up to 24 hrs by LC-MS/MS analysis
- Format: ADME, organism-based
- Set-up: route oral, dose 10 mg/kg, time <=24
- condition_label: in vivo
experimental_endpoint: Cmax (ng/mL)
Give the value in ng/mL but do not write ng/mL after it.

(Q) Report Cmax for `Cc1cc(Nc2nc(SCc3ccc(C(=O)Nc4ccc(F)cc4N)cc3)nn3cccc23)n[nH]1` please.
(A) 6.61
